Origin of the recorded values: ChEMBL document CHEMBL4402600

# Tested on: HeLa
# test_method_notes: Cytotoxicity in human HeLa cells assessed as reduction in cell viability incubated for 48 hrs by MTT assay
# Assay type: functional, cell-based
Mark 1 only when IC50 stays strictly below 60 µM. Values equal to the cut-off are 0.

Record excerpt, results attached:
INSERT INTO assay_data (compound, group) VALUES
  ('Cc1ncc([N+](=O)[O-])n1CCOC(=O)NC(n1cnc2c(N)nc(N)nc21)C(Cl)(Cl)Cl (configuration not stated)', 0),
  ('Cc1ncc([N+](=O)[O-])n1CCOC(=O)NC(n1cnc2c(NCc3ccccc3)ncnc21)C(Cl)(Cl)Cl (configuration not stated)', 0),
  ('Nc1nc(Cl)nc2c1ncn2C(NC(=O)OCc1ccccc1)C(Cl)(Cl)Cl (configuration not stated)', 0),
  ('Cc1ncc([N+](=O)[O-])n1CCOC(=O)NC(Nc1ccc2ccccc2n1)C(Cl)(Cl)Cl (configuration not stated)', 1);

Does the reported IC50 of the following compound sit strictly below 60 µM? Cc1ncc([N+](=O)[O-])n1CCOC(=O)NC(n1cnc2c(Cl)nc(N)nc21)C(Cl)(Cl)Cl (configuration not stated) 1

One more compound: Cc1ncc([N+](=O)[O-])n1CCOC(=O)NC(n1cnc2c(Cl)nc(F)nc21)C(Cl)(Cl)Cl (configuration not stated) 0

One more compound: CC(=O)Nc1nc2c(ncn2C(NC(=O)OCCn2c([N+](=O)[O-])cnc2C)C(Cl)(Cl)Cl)c(=O)[nH]1 (configuration not stated) 0
